- Test system: neural precursors derived from human fetal CNS tissue (hFetal)
- Protocol Details: Human fetal neural precursor EC50
- Type: cell-based
Readout Label: EC50 (nM)
Response body: numeric value in nM, unit text excluded.

The reported value for O[Si](CCCN1CCCCC1)(c1ccc(F)cc1)C1CCCCC1 (centres unmarked) [p-F-HHSiD (8), p-fluoro-hexahydrosila-difenidol] in terms of EC50 is 10600

Recorded EC50 (compound Nc1ccc(CCN2CCN(c3cccc(C(F)(F)F)c3)CC2)cc1 [PAPP (14)] ): 220

Measured EC50 of COc1cc([C@@H]2c3cc4c(cc3[C@@H](O[C@@H]3O[C@@H]5CO[C@@H](C)O[C@H]5[C@H](O)[C@H]3O)[C@H]3COC(=O)[C@H]23)OCO4)cc(OC)c1O [Etoposide (2), Etoposide] : 160

The recorded EC50 for entry N.N.O=C([O-])C1(C(=O)[O-])CCC1.[Pt+2] [Carboplatin (3), Carboplatin] equals 430

The recorded EC50 for CC(C(O)c1ccc(O)cc1)N1CCC(Cc2ccccc2)CC1 (centres unmarked) [Ifenprodil (9), Ifenprodil] is 420

---

- Test system: murine neural precursor cells (neurosphere cultures)
- Protocol Details: HTS of LOPAC library against secondary neurosphere cultures, MTT proliferation assay at 3 μM, day 7 (z score, P value)
- Format: cell-based, mouse
- Condition Description: yes/no: significantly inhibited neurosphere proliferation in primary screen
Counter-ions that a name gives are not always drawn.
Readout Label: Activity

Worked cases, Activity given:
O=C(CCCN1CCC2(CC1)C(=O)NCN2c1ccccc1)c1ccc(F)cc1 [Spiperone hydrochloride]; no
Cc1ccc(/C(=C\CN2CCCC2)c2ccccn2)cc1 [Triprolidine hydrochloride]; no
NC[C@@H]1O[C@H](O[C@H]2[C@@H](O)[C@H](O[C@@H]3[C@@H](O)[C@H](N)C[C@H](N)[C@H]3O[C@H]3O[C@H](CO)[C@@H](O)[C@H](O)[C@H]3N)O[C@@H]2CO)[C@H](N)[C@@H](O)[C@@H]1O.O=S(=O)(O)O [Paramomycin sulfate]; no
N#CC(C#N)=C(N)/C(C#N)=C/c1ccc(O)cc1; no

The molecule CC(=O)[C@H]1CC[C@H]2[C@@H]3CC=C4C[C@@H](OS(=O)(=O)[O-])CC[C@]4(C)[C@H]3CC[C@]12C.[Na+] [Pregnenolone sulfate sodium] , when measured on murine neural precursor cells (neurosphere cultures), yielded Activity of no

Recorded Activity for NC(=O)C(=O)[O-].[Na+] [Sodium Oxamate] on murine neural precursor cells (neurosphere cultures) was no

Response field Activity (murine neural precursor cells (neurosphere cultures)) for item N[C@@H](Cn1oc(=O)[nH]c1=O)C(=O)O [(+)-Quisqualic acid] : no

Form field Activity for item Cc1ccc(N(CC2=NCCN2)c2cccc(O)c2)cc1 [Phentolamine mesylate] on murine neural precursor cells (neurosphere cultures): no

The measured Activity that `Cc1ccc(=O)n(-c2ccccc2)c1` showed for murine neural precursor cells (neurosphere cultures) is no

Bench note, murine neural precursor cells (neurosphere cultures): entry Br.Oc1cc2c(c(Cl)c1O)CCNCC2c1ccccc1 (racemic) [(±)-6-Chloro-PB hydrobromide] , its Activity = no

Observed Activity, murine neural precursor cells (neurosphere cultures), CCCCCCCCCCCCCCCCCCNC(=O)OCC(COP(=O)([O-])OCC[n+]1ccsc1)OC (centres unmarked) : no

# value of Activity, murine neural precursor cells (neurosphere cultures), item `O=c1onc2cnc3ccccc3n12` = no

Reported murine neural precursor cells (neurosphere cultures) Activity for item `O=C(O)c1ccccc1Nc1cccc(OCc2ccc3ccccc3n2)c1` was no

Lab entry: murine neural precursor cells (neurosphere cultures) assay, molecule CC(N)=O [Acetamide] , Activity = no

Reading of Activity for Nc1ccc2c3c(cccc13)C(=O)NC2=O [4-Amino-1,8-naphthalimide] with murine neural precursor cells (neurosphere cultures): no

Simply: CCCCCCCCCCCCCCCCCC(=O)OC(CC(=O)O)C[N+](C)(C)C.[Cl-] (racemic) [DL-Stearoylcarnitine chloride] , murine neural precursor cells (neurosphere cultures), Activity = no

Entry O=C(O)CCCCCCC1C(=O)NC(=O)N1CCC(O)C1CCCCC1 (centres unmarked) [BW 245C] ; assay system murine neural precursor cells (neurosphere cultures); Activity recorded at no
